For each record, write down the corresponding Inhibition of binding (%).
Biological target: T1, human TSH receptor (full length), coated on tubes (human, UniProt P16473 22-764)
T1 construct: TSHR coated tubes as described in WO2004/050708A2; The receptor is full length and held on plastic tubes through a mouse MAb to the TSHR; also called thyroid stimulating hormone receptor
Test: inhibition of 125I-K1-70 Fab (competitor) binding to TSHR coated tubes; 3 µg/mL in HBD serum pool

Some solved cases for reference:
K1-70 Fab (Fab, V domains shown) VH: EVQLVQSGAEVKKPGQSLKISCKASGYSLTDNWIGWVRQKPGKGLEWMGIIYPGDSDTRYSPSFQGQVTISADKSINTAYLQWSSLKASDTAIYYCVGLDWNYNPLRYWGPGTLVTVSS VL: QSVLTQPPSVSAAPGQKVTISCSGSSSDIGSNYVSWYQQFPGTAPKLLIYDNNKRPSAIPDRFSGSKSGTSATLGITGLQTGDEADYYCGTWDSRLGIAVFGGGTQLTVLG ... 94.9%
K1-18 IgG (antibody, V domains shown, Human IgG1 kappa purified from hetero-hybridoma supernatant; also called human monoclonal autoantibody to the TSHR with TSH agonist activity) VH: EVQLVQSGAEVKKPGESLKISCKGSGYSFTNYWIGWVRQMPGKGLEWMGIIYPYDSDTRYSPSFEGQVTISADKSIRTAYLHWSSLKASDTAMYYCVRPRDGSYPYDAFDIWGQGTMVTVSS VL: EIVLTQSPGTLSLSPGERATLSCRASQSVSNNYLAWYQQKPGQAPRLLIYGASSRATGIPDRFSGSGSGTDFTLTISRLEPEDFAVYYCQHCGSSLRAFGQGTKVEIKR ... 93%
K1-18 Fab (Fab, V domains shown) VH: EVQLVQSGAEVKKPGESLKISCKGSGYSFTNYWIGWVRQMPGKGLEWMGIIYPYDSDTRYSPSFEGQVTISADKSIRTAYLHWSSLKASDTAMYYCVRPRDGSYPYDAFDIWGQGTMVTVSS VL: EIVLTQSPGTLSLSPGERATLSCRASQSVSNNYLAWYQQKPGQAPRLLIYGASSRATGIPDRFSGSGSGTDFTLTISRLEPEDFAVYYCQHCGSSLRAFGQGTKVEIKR ... 82.6%

Then there is this binder:
Inhibition of binding (%) for K1-70 IgG (antibody, V domains shown, Human IgG1 lambda purified from hetero-hybridoma supernatant; also called human monoclonal autoantibody to the TSHR with TSH antagonist activity) VH: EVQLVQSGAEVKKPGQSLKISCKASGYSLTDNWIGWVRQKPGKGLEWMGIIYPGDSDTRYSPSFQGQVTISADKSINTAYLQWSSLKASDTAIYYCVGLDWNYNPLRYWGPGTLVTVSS VL: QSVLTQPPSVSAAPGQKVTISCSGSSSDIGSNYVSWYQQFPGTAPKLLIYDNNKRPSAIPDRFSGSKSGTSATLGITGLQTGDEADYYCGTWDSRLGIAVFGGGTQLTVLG is 96.2%
